Measured Vd values are reported for all entries that follow.
test name: clinical
measurement context: human, in vivo, iv, Vdss
Give a bare numeral; the unit L/kg is implied.

# example entries with known answers
[Q] Please list Vd recorded for the compound CCNC(=O)[C@@H]1CCCN1C(=O)[C@H](CCCNC(=N)N)NC(=O)[C@H](CC(C)C)NC(=O)[C@@H](CC(C)C)NC(=O)[C@H](Cc1ccc(O)cc1)NC(=O)[C@H](CO)NC(=O)[C@H](Cc1c[nH]c2ccccc12)NC(=O)[C@H](Cc1c[nH]cn1)NC(=O)[C@@H]1CCC(=O)N1 [LEUPROLIDE]
[A] 0.38

[Q] Please list Vd recorded for the compound CN1CCN(C2=Nc3cc(Cl)ccc3Nc3ccccc32)CC1 [CLOZAPINE]
[A] 1.6

Now look at this entry.
[Q] Please list Vd recorded for the compound CN(C(=O)c1c(O)c2ccccc2n(C)c1=O)c1ccccc1 [ROQUINIMEX]
[A] 0.21

###

test name: clinical
measurement context: human, in vivo, iv
Under this convention, fulfilled denotes MRT strictly below 8 h and not fulfilled denotes MRT at or above 8 h.

Solved entries (count: 6):
[Q] Is MRT of COc1ccnc(C[S+]([O-])c2nc3ccc(OC(F)F)cc3[nH]2)c1OC (stereo not drawn) strictly below 8 h?
[A] fulfilled

[Q] Is MRT of COc1ccc2[nH]c([S+]([O-])Cc3ncc(C)c(OC)c3C)nc2c1 (stereo not drawn) strictly below 8 h?
[A] fulfilled

[Q] Is MRT of O=C1CN(/N=C/c2ccc(-c3ccc([N+](=O)[O-])cc3)o2)C(O)=N1 strictly below 8 h?
[A] not fulfilled

[Q] Is MRT of O=C1CN=C(c2ccccc2)c2cc([N+](=O)[O-])ccc2N1 strictly below 8 h?
[A] not fulfilled

[Q] Is MRT of C#CCN(C)[C@H](C)Cc1ccccc1 strictly below 8 h?
[A] fulfilled

[Q] Is MRT of Cn1cc(NC(=O)Nc2cc(C(=O)Nc3cc(C(=O)Nc4ccc5cc(S(=O)(=O)O)cc(S(=O)(=O)O)c5c4)n(C)c3)n(C)c2)cc1C(=O)Nc1cc(C(=O)Nc2ccc3cc(S(=O)(=O)O)cc(S(=O)(=O)O)c3c2)n(C)c1 strictly below 8 h?
[A] not fulfilled

Okay, now this molecule:
[Q] Is MRT of CN[C@@H]1[C@H](O)[C@H](NC)[C@H]2O[C@@]3(O)C(=O)C[C@@H](C)O[C@H]3O[C@@H]2[C@H]1O strictly below 8 h?
[A] fulfilled

###

test name: clinical
measurement context: human, in vivo, iv
Give yes (1) when the value for MRT is at least 7 h. Give no (0) when it is less.

Solved entries (count: 3):
[Q] MRT >= 7 h for CN1C2CCCC1CC(NC(=O)c1nn(C)c3ccccc13)C2 (stereo not given) ?
[A] no (0)

[Q] MRT >= 7 h for CN[C@@H]1C[C@H]2O[C@@](C)([C@@H]1OC)n1c3ccccc3c3c4c(c5c6ccccc6n2c5c31)C(=O)N[C@@H]4O ?
[A] yes (1)

[Q] MRT >= 7 h for COC(=O)C1=C(C)NC(C)=C(C(=O)OC(C)C)C1c1cccc2nonc12 (stereo not given) ?
[A] no (0)

---
[Q] MRT >= 7 h for CCN(CC)CCNC(=O)c1ccc(NC(C)=O)cc1 [ACECAINIDE] ?
[A] yes (1)

[Q] MRT >= 7 h for CN(Cc1cnc2nc(N)nc(N)c2n1)c1ccc(C(=O)N[C@@H](CCC(=O)O)C(=O)O)cc1 [METHOTREXATE] ?
[A] no (0)
